Target: D(2) dopamine receptor (Homo sapiens)
Assay: Binding affinity for dopamine D2 receptor
property.measured: Ki (nM)
One number for each entry, in nM.

stdin: Which Ki value belongs to O=S(=O)(N[C@H]1CC[C@@H](N2CCC(c3ccccc3OCC(F)(F)F)CC2)CC1)c1ccc2c(c1)OCCO2 ?
stdout: 57

Dear colleague, could you please provide Ki for the molecules listed below?
1. COc1ccc(S(=O)(=O)N[C@H]2CC[C@@H](N3CCC(c4ccccc4OCCF)CC3)CC2)cc1OC
2. O=S(=O)(N[C@H]1CC[C@@H](N2CCC(c3ccccc3OC3CC3)CC2)CC1)c1cc(Cl)ccc1F
3. O=S(=O)(N[C@H]1CC[C@@H](N2CCC(c3ccccc3OCC(F)(F)F)CC2)CC1)c1cccc(OC(F)F)c1
4. O=S(=O)(N[C@H]1CC[C@H](N2CCC(c3ccccc3OCC(F)(F)F)CC2)CC1)c1cccc(OC(F)F)c1
5. COc1ccc(S(=O)(=O)N[C@H]2CC[C@@H](N3CCC(c4ccccc4OCC(F)(F)F)CC3)CC2)cc1OC
6. COc1ccc(Cl)cc1S(=O)(=O)N[C@H]1CC[C@@H](N2CCC(c3ccccc3OCC(F)(F)F)CC2)CC1

stdout:
201
187
85
129
111
69

stdin: Which Ki value belongs to COc1ccc(Cl)cc1S(=O)(=O)N[C@H]1CC[C@H](N2CCC(c3ccccc3OCC(F)(F)F)CC2)CC1 ?
stdout: 82

---

Molecular target: Alpha-1D adrenergic receptor (Homo sapiens, UniProt P25100)
Sequence (P25100 whole entry): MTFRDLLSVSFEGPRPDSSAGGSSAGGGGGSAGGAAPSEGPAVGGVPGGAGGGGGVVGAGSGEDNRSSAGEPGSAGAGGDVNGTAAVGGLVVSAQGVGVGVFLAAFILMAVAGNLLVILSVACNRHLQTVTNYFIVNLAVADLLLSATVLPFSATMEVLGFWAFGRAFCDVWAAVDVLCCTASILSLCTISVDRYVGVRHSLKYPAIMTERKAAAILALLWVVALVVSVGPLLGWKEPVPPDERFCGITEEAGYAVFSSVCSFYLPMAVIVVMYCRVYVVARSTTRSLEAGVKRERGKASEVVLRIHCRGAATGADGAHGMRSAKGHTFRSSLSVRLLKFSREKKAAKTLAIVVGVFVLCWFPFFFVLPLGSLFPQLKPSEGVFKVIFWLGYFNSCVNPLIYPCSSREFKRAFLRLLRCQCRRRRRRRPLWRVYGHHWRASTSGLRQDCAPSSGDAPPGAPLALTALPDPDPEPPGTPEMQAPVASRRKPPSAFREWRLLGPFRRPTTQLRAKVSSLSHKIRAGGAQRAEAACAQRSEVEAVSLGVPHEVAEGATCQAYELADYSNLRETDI
Test: Binding affinity to human cloned adrenergic alpha-1d receptor
property.measured: pKi
One number for each entry, as −log10 of the molar value.

Dear colleague, could you please provide pKi for the compounds listed below?
1. CC(C)Oc1ccccc1C1CCN([C@H]2CC[C@H](NS(=O)(=O)c3ccc(F)c(F)c3)CC2)CC1
2. COc1ccc(Cl)cc1S(=O)(=O)N[C@H]1CC[C@@H](N2CCC(c3ccccc3OCC(F)(F)F)CC2)CC1
3. COc1ccc(S(=O)(=O)N[C@H]2CC[C@@H](N3CCC(c4ccccc4OC(C)C)CC3)CC2)cc1OC
4. COc1ccc(S(=O)(=O)N[C@H]2CC[C@@H](N3CCC(c4ccccc4OCCF)CC3)CC2)cc1OC

stdout:
7.06
8.80
9.11
8.26

Dear colleague, could you please provide pKi for the compounds listed below?
1. COc1ccc(S(=O)(=O)N[C@H]2CC[C@@H](N3CCC(c4ccc(F)cc4OC(C)C)CC3)CC2)cc1OC
2. COc1ccc(S(=O)(=O)N[C@H]2CC[C@H](N3CCC(c4ccccc4OCC(F)(F)F)CC3)CC2)cc1OC
3. COc1ccc(S(=O)(=O)N[C@H]2CC[C@H](N3CCC(c4ccccc4OC4CC4)CC3)CC2)cc1OC

stdout:
7.92
7.64
7.47

---

Target: D(2) dopamine receptor (Homo sapiens, UniProt P14416)
Sequence (P14416 whole entry): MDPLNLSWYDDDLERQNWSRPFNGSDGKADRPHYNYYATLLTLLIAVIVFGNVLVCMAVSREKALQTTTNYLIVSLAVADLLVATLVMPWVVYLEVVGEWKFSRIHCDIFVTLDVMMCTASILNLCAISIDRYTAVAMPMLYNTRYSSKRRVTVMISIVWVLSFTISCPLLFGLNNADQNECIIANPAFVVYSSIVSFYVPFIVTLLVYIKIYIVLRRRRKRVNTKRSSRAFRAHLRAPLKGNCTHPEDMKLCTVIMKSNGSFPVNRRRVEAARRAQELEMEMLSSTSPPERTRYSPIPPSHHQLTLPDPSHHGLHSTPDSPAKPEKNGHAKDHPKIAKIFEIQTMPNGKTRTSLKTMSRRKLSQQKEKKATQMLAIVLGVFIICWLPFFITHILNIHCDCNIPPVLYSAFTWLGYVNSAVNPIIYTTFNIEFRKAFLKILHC
Assay: Binding affinity for dopamine D2 receptor
property.measured: pKi
Answers are plain numbers, as −log10 of the molar value.

# annotated cases, reported pKi shown
stdin: Given the entry COc1ccc(S(=O)(=O)N[C@H]2CC[C@@H](N3CCC(c4ccc(F)cc4OC(C)C)CC3)CC2)cc1OC , what pKi was observed with D(2) dopamine receptor (Homo sapiens, UniProt P14416)?
stdout: 6.97

stdin: Given the entry COc1ccc(S(=O)(=O)N[C@H]2CC[C@H](N3CCC(c4ccccc4OCC(F)F)CC3)CC2)cc1OC , what pKi was observed with D(2) dopamine receptor (Homo sapiens, UniProt P14416)?
stdout: 7.06

stdin: Given the entry O=S(=O)(N[C@H]1CC[C@@H](N2CCC(c3ccccc3OC3CC3)CC2)CC1)c1ccc2c(c1)OCO2 , what pKi was observed with D(2) dopamine receptor (Homo sapiens, UniProt P14416)?
stdout: 7.18

Dear colleague, could you please provide pKi for the compounds listed below?
1. O=S(=O)(N[C@H]1CC[C@H](N2CCC(c3ccccc3OCC(F)(F)F)CC2)CC1)c1ccc(OC(F)F)cc1
2. COc1ccc(S(=O)(=O)N[C@H]2CC[C@@H](N3CCC(c4ccccc4OCC(F)F)CC3)CC2)cc1OC
3. COc1ccc(S(=O)(=O)N[C@H]2CC[C@@H](N3CCC(c4ccccc4OC(C)C)CC3)CC2)cc1OC
4. COc1ccc(S(=O)(=O)N[C@H]2CC[C@H](N3CCC(c4ccccc4OC4CC4)CC3)CC2)cc1OC

stdout:
6.98
6.56
6.84
6.88

---

Molecular target: Alpha-1B adrenergic receptor (Homo sapiens)
Sequence (P35368 whole entry): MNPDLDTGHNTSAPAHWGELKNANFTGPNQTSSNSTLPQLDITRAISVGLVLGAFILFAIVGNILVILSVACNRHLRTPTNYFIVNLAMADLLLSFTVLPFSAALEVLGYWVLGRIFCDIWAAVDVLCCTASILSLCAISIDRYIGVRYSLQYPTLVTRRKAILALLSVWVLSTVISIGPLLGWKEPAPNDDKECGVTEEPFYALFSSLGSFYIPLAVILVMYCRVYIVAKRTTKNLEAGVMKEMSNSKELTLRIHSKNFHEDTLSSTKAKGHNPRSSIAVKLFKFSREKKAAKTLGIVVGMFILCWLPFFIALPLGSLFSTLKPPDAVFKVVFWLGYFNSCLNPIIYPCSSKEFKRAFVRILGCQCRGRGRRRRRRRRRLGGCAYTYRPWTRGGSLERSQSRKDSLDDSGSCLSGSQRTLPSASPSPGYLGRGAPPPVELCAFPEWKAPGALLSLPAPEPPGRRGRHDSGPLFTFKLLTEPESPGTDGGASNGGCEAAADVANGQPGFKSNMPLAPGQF
Give Ki for every item shown.
Numbers only, in nM.

stdin: Given the entry O=S(=O)(N[C@H]1CC[C@H](N2CCC(c3ccccc3OCC(F)(F)F)CC2)CC1)c1ccc2c(c1)OCCO2 , what Ki was observed with Alpha-1B adrenergic receptor (Homo sapiens)?
stdout: 91

stdin: Given the entry COc1ccc(S(=O)(=O)N[C@H]2CC[C@@H](N3CCC(c4ccccc4OCCF)CC3)CC2)cc1OC , what Ki was observed with Alpha-1B adrenergic receptor (Homo sapiens)?
stdout: 401

Dear colleague, could you please provide Ki for the compounds listed below?
1. COc1ccc(S(=O)(=O)N[C@H]2CC[C@@H](N3CCC(c4ccccc4OCC(F)(F)F)CC3)CC2)cc1OC
2. CC(C)Oc1ccccc1C1CCN([C@H]2CC[C@H](NS(=O)(=O)c3ccc(F)c(F)c3)CC2)CC1

stdout:
1: 123; 2: 1380

---

Target: Alpha-1A adrenergic receptor (Homo sapiens)
Sequence (P35348 whole entry): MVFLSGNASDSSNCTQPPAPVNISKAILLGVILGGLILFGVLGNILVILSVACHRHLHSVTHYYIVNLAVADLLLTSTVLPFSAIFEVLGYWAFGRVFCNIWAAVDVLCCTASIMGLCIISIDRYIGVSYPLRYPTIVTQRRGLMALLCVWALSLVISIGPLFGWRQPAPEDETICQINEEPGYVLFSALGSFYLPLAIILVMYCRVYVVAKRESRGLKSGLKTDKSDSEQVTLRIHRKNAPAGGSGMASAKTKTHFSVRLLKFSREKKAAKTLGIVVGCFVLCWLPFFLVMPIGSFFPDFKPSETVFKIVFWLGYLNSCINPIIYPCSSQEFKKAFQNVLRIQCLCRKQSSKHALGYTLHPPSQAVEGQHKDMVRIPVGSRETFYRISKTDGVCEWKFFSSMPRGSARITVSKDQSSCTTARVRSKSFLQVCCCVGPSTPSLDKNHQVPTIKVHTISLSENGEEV
Experiment: Binding affinity to human cloned adrenergic alpha-1a receptor
Give Ki for every item shown.
Give bare numbers, in nM.

Dear colleague, could you please provide Ki for the compounds listed below?
1. CC(C)Oc1ccccc1C1CCN([C@H]2CC[C@H](NS(=O)(=O)c3ccc(F)c(F)c3)CC2)CC1
2. COc1ccc(S(=O)(=O)N[C@H]2CC[C@@H](N3CCC(c4ccccc4OCC(F)(F)F)CC3)CC2)cc1OC
3. O=S(=O)(N[C@H]1CC[C@@H](N2CCC(c3ccccc3OC3CC3)CC2)CC1)c1ccc2c(c1)OCO2
4. COc1ccc(S(=O)(=O)N[C@H]2CC[C@@H](N3CCC(c4ccccc4OC(C)C)CC3)CC2)cc1OC

stdout:
1: 1.4; 2: 1.8; 3: 16; 4: 2.2

Dear colleague, could you please provide Ki for the compounds listed below?
1. O=S(=O)(N[C@H]1CC[C@H](N2CCC(c3ccccc3OCC(F)(F)F)CC2)CC1)c1cc(Cl)ccc1F
2. COc1ccc(S(=O)(=O)N[C@H]2CC[C@H](N3CCC(c4ccccc4OCC(F)(F)F)CC3)CC2)cc1OC
3. COc1ccc(S(=O)(=O)N[C@H]2CC[C@H](N3CCC(c4ccccc4OC4CC4)CC3)CC2)cc1OC
4. COc1ccc(S(=O)(=O)N[C@H]2CC[C@@H](N3CCC(c4ccccc4OCCF)CC3)CC2)cc1OC

stdout:
4.8
21
11
8.5
